- Target entity: T1, proprotein convertase subtilisin/kexin type 9 (PCSK9) (human, UniProt Q8NBP7 31-692)
- T1 construct: His-tagged full-length PCSK9 in TR-FRET and SPR, biotinylated in phage ELISA; secreted protein is autoprocessed (prodomain plus catalytic/CRD chain starting at S153); also called rec.PCSK9; His-PCSK9
- T1 sequence (Q8NBP7 other isoform, or with tags, fused parts or gaps limits assumed): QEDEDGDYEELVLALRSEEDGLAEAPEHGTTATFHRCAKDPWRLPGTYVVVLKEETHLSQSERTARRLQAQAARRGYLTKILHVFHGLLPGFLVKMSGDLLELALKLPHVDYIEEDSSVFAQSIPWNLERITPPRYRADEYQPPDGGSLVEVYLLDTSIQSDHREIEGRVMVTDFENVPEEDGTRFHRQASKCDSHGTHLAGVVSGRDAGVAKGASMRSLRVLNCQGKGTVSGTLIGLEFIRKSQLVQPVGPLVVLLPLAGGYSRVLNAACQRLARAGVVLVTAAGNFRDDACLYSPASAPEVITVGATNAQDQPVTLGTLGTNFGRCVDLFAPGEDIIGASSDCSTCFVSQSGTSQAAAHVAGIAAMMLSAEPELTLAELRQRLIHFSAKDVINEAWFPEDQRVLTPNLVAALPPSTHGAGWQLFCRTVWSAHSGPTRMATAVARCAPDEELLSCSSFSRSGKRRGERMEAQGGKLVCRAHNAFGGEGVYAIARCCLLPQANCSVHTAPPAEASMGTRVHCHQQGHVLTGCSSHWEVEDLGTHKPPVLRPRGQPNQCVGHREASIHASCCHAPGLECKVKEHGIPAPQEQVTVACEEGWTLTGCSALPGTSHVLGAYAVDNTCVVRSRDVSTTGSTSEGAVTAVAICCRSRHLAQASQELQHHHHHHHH
- Assay remarks: phage spot ELISA
Attribute measured: s/n ratio

>>> print(df.to_string())
                                      binder  endpoint_result
 0  TAFTSWEEYLDWVGSGGREMRSVIQM [SEQ ID NO 344]             28.2
 1  TAFTSWEEYLDWVGSGCVKVGLSWIGDCNS [SEQ ID NO 334]             23.9
 2  TAFTSWEEYLDWVGSGNCARLYSHQRDYSQVC [SEQ ID NO 352]             24.4
 3  TAFTSWEEYLDWVGSGVCSDHYIGGKEVRC [SEQ ID NO 348]             27.4
 4  TAFTSWEEYLDWVGSGQELPNHRRLS [SEQ ID NO 346]             19.1
 5  TAFTSWEEYLDWVGSGCMEAWQCSLA [SEQ ID NO 337]             24.6
 6  TAFTSWEEYLDWVGSGQTTYLRVSSS [SEQ ID NO 341]               27
 7  TAFTSWEEYLDWVGSGSYRGAWSVFGGSTD [SEQ ID NO 336]             19.5
 8  TAFTSWEEYLDWVGSGCYPLCRVG [SEQ ID NO 355]             16.2
 9  TAFTSWEEYLDWVGSGNMCYLRGKMDCNIV [SEQ ID NO 347]             30.9
10  TAFTSWEEYLDWVGSGDCNLWGDDGKYRLCF [SEQ ID NO 333]             23.6
11  TAFTSWEEYLDWVGSGSETGLGTYYG [SEQ ID NO 350]             28.1
12  TAFTSWEEYLDWVGSGSSTWHFVGGVRV [SEQ ID NO 354]             24.4
13  TAFTSWEEYLDWVGSGKMTHMKAD [SEQ ID NO 357]             22.4
14  TAFTSWEEYLDWVGSGPTSGLTPS [SEQ ID NO 361]             27.5
